system-tested: MRP4 (ATP-binding cassette sub-family C member 4) (Homo sapiens, UniProt O15439)
Sequence (O15439 whole entry): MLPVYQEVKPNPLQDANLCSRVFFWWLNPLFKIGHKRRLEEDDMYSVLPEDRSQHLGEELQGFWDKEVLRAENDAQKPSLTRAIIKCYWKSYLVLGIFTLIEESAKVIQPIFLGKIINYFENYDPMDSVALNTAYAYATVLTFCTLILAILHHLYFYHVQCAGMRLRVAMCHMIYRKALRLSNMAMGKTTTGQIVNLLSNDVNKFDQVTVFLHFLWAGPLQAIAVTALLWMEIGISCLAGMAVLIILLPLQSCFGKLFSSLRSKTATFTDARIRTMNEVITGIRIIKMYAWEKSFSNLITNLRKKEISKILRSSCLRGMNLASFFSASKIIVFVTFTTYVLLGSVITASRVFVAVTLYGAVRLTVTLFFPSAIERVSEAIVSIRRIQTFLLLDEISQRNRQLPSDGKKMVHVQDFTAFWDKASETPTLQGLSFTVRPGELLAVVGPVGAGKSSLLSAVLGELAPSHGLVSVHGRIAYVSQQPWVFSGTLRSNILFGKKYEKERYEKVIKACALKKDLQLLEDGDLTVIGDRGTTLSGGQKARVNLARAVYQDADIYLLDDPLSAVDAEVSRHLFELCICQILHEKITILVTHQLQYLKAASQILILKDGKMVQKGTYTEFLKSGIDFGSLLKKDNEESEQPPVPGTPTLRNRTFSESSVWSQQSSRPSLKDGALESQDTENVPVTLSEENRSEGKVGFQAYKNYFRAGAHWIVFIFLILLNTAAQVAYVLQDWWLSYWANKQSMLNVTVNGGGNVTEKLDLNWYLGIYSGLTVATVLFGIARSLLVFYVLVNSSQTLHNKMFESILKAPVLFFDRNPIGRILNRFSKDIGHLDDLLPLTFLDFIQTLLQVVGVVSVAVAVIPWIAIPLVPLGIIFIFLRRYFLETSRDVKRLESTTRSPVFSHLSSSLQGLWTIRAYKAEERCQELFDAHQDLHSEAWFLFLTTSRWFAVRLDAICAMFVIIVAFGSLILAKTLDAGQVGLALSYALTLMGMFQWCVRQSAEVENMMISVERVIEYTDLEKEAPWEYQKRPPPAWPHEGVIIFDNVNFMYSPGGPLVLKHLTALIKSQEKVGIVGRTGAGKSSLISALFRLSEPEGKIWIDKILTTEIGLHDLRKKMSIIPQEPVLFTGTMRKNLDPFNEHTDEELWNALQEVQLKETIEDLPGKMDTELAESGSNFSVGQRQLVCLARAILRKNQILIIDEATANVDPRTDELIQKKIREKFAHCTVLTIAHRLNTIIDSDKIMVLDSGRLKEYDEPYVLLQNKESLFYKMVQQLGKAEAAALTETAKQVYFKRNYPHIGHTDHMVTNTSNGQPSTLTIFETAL
assay-notes: TP_TRANSPORTER: inhibition of E217betaG in the presence of Indoprofen at a concentration of 50uM in membrane vesicles from MRP4-expressing Sf9 cells
Type: functional, cell membranes, Membrane vesicle
Design: scale not given: the % may be the effect or the level left
condition-details: probe E217betaG, read-out: Activity
measured-property: activity at 50 µM (%)
Provide only the numeric value, understood in %.

Entry CC(C(=O)O)c1ccc(N2Cc3ccccc3C2=O)cc1 (stereo unspecified) [INDOPROFEN] has what activity at 50 µM?
17

* * *

system-tested: MRP4 (ATP-binding cassette sub-family C member 4) (Homo sapiens)
assay-notes: TP_TRANSPORTER: inhibition of E217betaG in the presence of Diclofenac at a concentration of 100uM in membrane vesicles from MRP4-expressing Sf9 cells
Format: functional, cell membranes, Membrane vesicle
Set-up: scale not given: the % may be the effect or the level left
condition-details: probe E217betaG, read-out: Activity
measured-property: activity at 100 µM (%)
Provide only the numeric value, understood in %.

Entry O=C(O)Cc1ccccc1Nc1c(Cl)cccc1Cl [DICLOFENAC] has what activity at 100 µM?
61

// provenance: ChEMBL document CHEMBL2073947
